Molecular target: Protein arginine N-methyltransferase 1 (Homo sapiens)
Sequence (Q99873 whole entry, looked up): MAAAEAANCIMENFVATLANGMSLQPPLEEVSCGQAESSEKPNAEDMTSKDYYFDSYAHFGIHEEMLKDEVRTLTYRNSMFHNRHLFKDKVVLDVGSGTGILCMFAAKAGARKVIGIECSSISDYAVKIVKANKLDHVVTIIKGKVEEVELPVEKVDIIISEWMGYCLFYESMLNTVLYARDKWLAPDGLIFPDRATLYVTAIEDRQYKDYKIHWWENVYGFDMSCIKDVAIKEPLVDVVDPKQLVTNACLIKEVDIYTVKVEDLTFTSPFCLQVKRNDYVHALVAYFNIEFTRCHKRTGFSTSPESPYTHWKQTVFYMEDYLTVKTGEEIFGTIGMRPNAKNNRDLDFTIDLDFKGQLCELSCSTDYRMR
Experiment: Inhibition of human PRMT1 using H4-21peptide as substrate at 10 uM incubated for 10 mins by fluorescence based analysis relative to control
Activity calls are given as the source filed them. No cut-off for these calls is given here.
Measured Quantity: inhibition

Study these solved cases before continuing.
> print(dat)
                              smiles.string                                    target  value.observed
1  Nc1ncnc2c1ncn2[C@@H]1O[C@H](CSCCNC(=O)NCc2ccc(-c3cccc(O)c3)cc2)[C@@H](O)[C@H]1O  Protein arginine N-methyltransferase 1 (Homo sapiens)           < 50%
2  N=C(NCCCSC[C@H]1O[C@@H](n2cnc3c(N)ncnc32)[C@H](O)[C@@H]1O)Nc1cccc(-c2ccc3c(c2)OCCO3)c1  Protein arginine N-methyltransferase 1 (Homo sapiens)           > 50%
3  N=C(NCCCSC[C@H]1O[C@@H](n2cnc3c(NCCCc4ccccc4)ncnc32)[C@H](O)[C@@H]1O)NC1CCCC1  Protein arginine N-methyltransferase 1 (Homo sapiens)          Active
4  Nc1ncnc2c1ncn2[C@@H]1O[C@H](CSCCNC(=O)NCc2ccc(-c3ccc(O)cc3)cc2)[C@@H](O)[C@H]1O  Protein arginine N-methyltransferase 1 (Homo sapiens)           < 50%
5  N=C(NCCCSC[C@H]1O[C@@H](n2cnc3c(N)ncnc32)[C@H](O)[C@@H]1O)NCc1ccccc1  Protein arginine N-methyltransferase 1 (Homo sapiens)           > 50%

IN: Field request: inhibition | item: `Nc1ncnc2c1ncn2[C@@H]1O[C@H](CSCCNC(=O)NCc2ccccc2Br)[C@@H](O)[C@H]1O`
OUT: < 50%

IN: Another compound to look at: `N=C(NCCCO)NCCCSC[C@H]1O[C@@H](n2cnc3c(NCCCc4ccccc4)ncnc32)[C@H](O)[C@@H]1O`
OUT: Active
